Just for reference, ChEMBL document CHEMBL1201861 is where these values come from.

- Tested on: 5637
- assay remarks: cells
- Format: functional, cell-based
- assay context: Homo sapiens
- Description: SANGER: Inhibition of human 5637 cell growth in a cell viability assay.
Catalogue of IC50 readings, one per entry.

Consider the following illustrative entries.
CS(=O)(=O)N1CCN(Cc2cc3nc(-c4cccc5[nH]ncc45)nc(N4CCOCC4)c3s2)CC1: 2710 nM
NC1(c2ccc(-c3nc4ccn5c(=O)[nH]nc5c4cc3-c3ccccc3)cc2)CCC1: > 4000 nM
C/C(=C\c1csc(C)n1)[C@@H]1C[C@@H]2O[C@]2(C)CCC[C@H](C)[C@H](O)[C@@H](C)C(=O)C(C)(C)[C@@H](O)CC(=O)O1: 0.638 nM
Cc1ccc(-n2nc(C(C)(C)C)cc2NC(=O)Nc2ccc(OCCN3CCOCC3)c3ccccc23)cc1: > 10000 nM
NC(=O)c1ccc(N(C(N)=O)c2c(F)cccc2F)nc1-c1ccc(F)cc1F: > 2000 nM

QUERY: State the recorded IC50 for this entry: CN(NC(=O)CC(=O)NN(C)C(=S)c1ccccc1)C(=S)c1ccccc1
RESULT: 35.5 nM

====

- Tested on: CAKI-1;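 note: growth inhibition of CAKI-1 cells, measured by a cell viability assay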
- assay remarks: cells
- Format: functional, cell-based
- assay context: Homo sapiens
- Description: SANGER: Inhibition of human CAKI-1 cell growth in a cell viability assay.
pIC50: −log10 of the molar value.
observable: pIC50

CC1(C)CCC(c2ccc(Cl)cc2)=C(CN2CCN(c3ccc(C(=O)NS(=O)(=O)c4ccc(N[C@H](CCN5CCOCC5)CSc5ccccc5)c(S(=O)(=O)C(F)(F)F)c4)cc3)CC2)C1: < 5.70

Consider the record given below.
QUERY: State the recorded pIC50 for this entry: COC(=O)[C@H](CCSC)NC(=O)c1ccc(NC[C@@H](N)CS)cc1-c1ccccc1
RESULT: < 5.99

====

Catalogue of IC50 readings, one per entry.
- Tested on: LN-405
- assay remarks: cells
- Type: functional, cell-based
- assay context: Homo sapiens
- Description: SANGER: Inhibition of human LN-405 cell growth in a cell viability assay.

Consider the following illustrative entries.
Cc1ccc(C(=O)Nc2ccc(CN3CCN(C)CC3)c(C(F)(F)F)c2)cc1C#Cc1cnc2cccnn12: > 0.512 µM
NC(=O)Nc1cc(-c2cccc(F)c2)sc1C(=O)N[C@H]1CCCNC1: 0.877 µM

QUERY: Recorded IC50 for CC1(C)CCC(c2ccc(Cl)cc2)=C(CN2CCN(c3ccc(C(=O)NS(=O)(=O)c4ccc(N[C@H](CCN5CCOCC5)CSc5ccccc5)c(S(=O)(=O)C(F)(F)F)c4)cc3)CC2)C1 with LN-405, please?
RESULT: > 2 µM

====

- Tested on: MC-CAR;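 note: growth inhibition of the human MC-CAR cell line, read out by a cell viability assay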
- assay remarks: cells
- Assay type: functional, cell-based, Homo sapiens
- assay context: Homo sapiens, MC-CAR
- Description: SANGER: Inhibition of human MC-CAR cell growth in a cell viability assay.
observable: IC50 (nM)
// return numeric value only (unit: nM, not printed)

QUERY: State the recorded IC50 for this entry: COc1ccc(-c2cc3nccn3c(Nc3ncccc3C(N)=O)n2)cc1OC
RESULT: 1140

QUERY: Now try C/C(=C\c1csc(C)n1)[C@@H]1C[C@@H]2O[C@]2(C)CCC[C@H](C)[C@H](O)[C@@H](C)C(=O)C(C)(C)[C@@H](O)CC(=O)O1 .
RESULT: 9.73

====

- System: MOLT-16;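 note: growth inhibition of human MOLT-16 cells, read out with a cell viability assay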
- assay remarks: cells
- Type: functional, cell-based, Homo sapiens
- assay context: Homo sapiens, MOLT-16
- Description: SANGER: Inhibition of human MOLT-16 cell growth in a cell viability assay.
observable: IC50 (nM)
// return numeric value only (unit: nM, not printed)

Consider the following illustrative entries.
O=C1NC(=O)c2c1c(-c1ccccc1Cl)cc1[nH]c3ccc(O)cc3c21: 1420
CC1(C)CCC(c2ccc(Cl)cc2)=C(CN2CCN(c3ccc(C(=O)NS(=O)(=O)c4ccc(N[C@H](CCN5CCOCC5)CSc5ccccc5)c(S(=O)(=O)C(F)(F)F)c4)cc3)CC2)C1 [NAVITOCLAX]: 653
C[C@@H](Oc1cc(-c2cnn(C3CCNCC3)c2)cnc1N)c1c(Cl)ccc(F)c1Cl [CRIZOTINIB]: 1960

QUERY: State the recorded IC50 for this entry: NC1(c2ccc(-c3nc4ccn5c(=O)[nH]nc5c4cc3-c3ccccc3)cc2)CCC1 [MK-2206]
RESULT: 303
